# reported Kd; entries follow
Target Desc: SARS-CoV-2 spike protein receptor binding domain (RBD2) (SARS-CoV-2, UniProt P0DTC2 319-537)
Assay Procedure: flow cytometry, yeast-displayed scFv
Give the value, in units of nM, as a plain number.

Illustrative cases are given below, each with its answer.
# Binder, Readout Units, Kd
rows = [
    ("E01 scFv (scFv, also called E1) scFv: SYELTQPPSVSVAPGETARITCGGDNIGRRHVHWYQQKPGQAPVLVIYDDSDRPSGIPDRFSGSNSGNTATLTIGRVEAGDEADYYCQVWGSSNDPHVFGTGTKLTVLSGGSTITSNNVYYTKLSSSGTQVQLQQWGAGLLKPSETLSLKCAVYGGSFSGYYWGWIRQSTGKGLEWIGEINRSGSTNYNPSLKSRVTISVDTSKNQFSLKLSSVTAADTAVYYCARGGARYYYGSGSYRSTPRPYYFDYWGQGTLVTVSS", "nM", 13.9),
    ("R04 scFv (scFv) scFv: EIVMTQSPSSLSASVGDRVTITCQASQDISNYLNWCQQKPGKAPKLLIYDASNLETGVPSRFSGSGSGTGFTFTISSLQPEDFATYYCQQSYSTPYTFGQGTKVEIKSGGSTITSYNVNYTKLSSSGAQVQLQQSGPGLVKSSQTLSLTCAISGDSVSSNGAAWHWIRQSPSRGLEWLGRTYYRSGWYNDYAVSVKSRITINQDTSKNQFSLQLNSVTPEDTAVYFCAREGGGGRMDVWSQGTTVTVSS", "nM", 293),
    ("H01 scFv (scFv, also called H1) scFv: QPGLTQPPSVSLAPGQTARITCGGNNIGSKSVHWYQQKPGQAPVLVVYDDSDRPSGIPERFSGSNAGNTATLTISRVEAGDEADYYCQVWDSRSDQYVFGTRTKLTVLSGGSTITSYNVYYTKLSSSGAQVTLKESGPVLVKPTETLTLTCTVSGFSLSNARMGVSWIRQPPGKALEWLAHIFSNGEKSYSTSLKSRLTISKDTSKSQVVLTMTNMDPVDTATYYCARTLDYYDSSGYLVGGAFDIWGQGTMVTVSS", "nM", 66.4),
]

Now consider a different binder.
Quick one: Kd for S01 scFv (scFv, also called 501) scFv: EIVMTQSPSSLSASVGDSVTITCQASQDISNYLNWYQQKPGKAPKLLIYDASNLETGVPSRFSGGGSGTDFTLTITSLQPEDIATYYCQQYDNFPPTFGPGTKVDIKSGGSTITSYNVYYTKLSSSDTQVQLVESGGGLVKPGGSLRLSCAASGFTVGSNYMSWVRQAPGKGLEWVSVIYSGGSTYYADSVKGRFTISRDNSKNTLYLQMNSLRAEDTAVYYCARGSSGAWYFDLWGRGTLVTVSS ?
44.1
